biological target: Delta-type opioid receptor (Homo sapiens, UniProt P41143); test: Displacement of [3H]DPDPE from human delta opioid receptor expressed in CHO cells after 120 mins by liquid scintillation counting
Sequence (P41143 whole entry): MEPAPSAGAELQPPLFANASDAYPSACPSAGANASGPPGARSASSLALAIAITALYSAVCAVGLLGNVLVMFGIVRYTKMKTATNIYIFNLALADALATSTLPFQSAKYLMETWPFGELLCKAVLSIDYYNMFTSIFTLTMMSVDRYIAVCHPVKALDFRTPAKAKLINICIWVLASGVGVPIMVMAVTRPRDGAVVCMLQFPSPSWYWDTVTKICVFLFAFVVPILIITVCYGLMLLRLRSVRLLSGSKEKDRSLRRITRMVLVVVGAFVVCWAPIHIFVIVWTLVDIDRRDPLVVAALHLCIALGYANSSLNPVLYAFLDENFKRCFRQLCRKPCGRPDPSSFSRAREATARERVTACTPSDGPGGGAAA
pKi: −log10 of the molar value.

{"structureNotation": "CN(CCCc1ccccc1)[C@H]1CCCC[C@@H]1OCCCc1ccccc1", "targetUnderTest": "Delta-type opioid receptor (Homo sapiens, UniProt P41143)", "pKi": 5.21}
{"structureNotation": "CN(CCCc1ccccc1)[C@H]1CCCC[C@@H]1O", "targetUnderTest": "Delta-type opioid receptor (Homo sapiens, UniProt P41143)", "pKi": "< 5.00"}
{"structureNotation": "CN(C)[C@H]1CCCC[C@@H]1OCCCc1ccccc1", "targetUnderTest": "Delta-type opioid receptor (Homo sapiens, UniProt P41143)", "pKi": "< 5.00"}
{"structureNotation": "CN(CCc1ccccc1)[C@H]1CCCC[C@@H]1O", "targetUnderTest": "Delta-type opioid receptor (Homo sapiens, UniProt P41143)", "pKi": "< 5.00"}
{"structureNotation": "CN(CCc1ccccc1)[C@H]1CCCC[C@@H]1OCCCc1ccccc1", "targetUnderTest": "Delta-type opioid receptor (Homo sapiens, UniProt P41143)", "pKi": "< 5.00"}
{"structureNotation": "CN(C)[C@H]1CCCC[C@@H]1OC/C=C/c1ccccc1", "targetUnderTest": "Delta-type opioid receptor (Homo sapiens, UniProt P41143)", "pKi": "< 5.00"}

Where do the numbers come from? From BindingDB's records for doi:10.1016/j.bmc.2013.06.068.
